experimental_system: UniProt O00763
Sequence (O00763 whole entry): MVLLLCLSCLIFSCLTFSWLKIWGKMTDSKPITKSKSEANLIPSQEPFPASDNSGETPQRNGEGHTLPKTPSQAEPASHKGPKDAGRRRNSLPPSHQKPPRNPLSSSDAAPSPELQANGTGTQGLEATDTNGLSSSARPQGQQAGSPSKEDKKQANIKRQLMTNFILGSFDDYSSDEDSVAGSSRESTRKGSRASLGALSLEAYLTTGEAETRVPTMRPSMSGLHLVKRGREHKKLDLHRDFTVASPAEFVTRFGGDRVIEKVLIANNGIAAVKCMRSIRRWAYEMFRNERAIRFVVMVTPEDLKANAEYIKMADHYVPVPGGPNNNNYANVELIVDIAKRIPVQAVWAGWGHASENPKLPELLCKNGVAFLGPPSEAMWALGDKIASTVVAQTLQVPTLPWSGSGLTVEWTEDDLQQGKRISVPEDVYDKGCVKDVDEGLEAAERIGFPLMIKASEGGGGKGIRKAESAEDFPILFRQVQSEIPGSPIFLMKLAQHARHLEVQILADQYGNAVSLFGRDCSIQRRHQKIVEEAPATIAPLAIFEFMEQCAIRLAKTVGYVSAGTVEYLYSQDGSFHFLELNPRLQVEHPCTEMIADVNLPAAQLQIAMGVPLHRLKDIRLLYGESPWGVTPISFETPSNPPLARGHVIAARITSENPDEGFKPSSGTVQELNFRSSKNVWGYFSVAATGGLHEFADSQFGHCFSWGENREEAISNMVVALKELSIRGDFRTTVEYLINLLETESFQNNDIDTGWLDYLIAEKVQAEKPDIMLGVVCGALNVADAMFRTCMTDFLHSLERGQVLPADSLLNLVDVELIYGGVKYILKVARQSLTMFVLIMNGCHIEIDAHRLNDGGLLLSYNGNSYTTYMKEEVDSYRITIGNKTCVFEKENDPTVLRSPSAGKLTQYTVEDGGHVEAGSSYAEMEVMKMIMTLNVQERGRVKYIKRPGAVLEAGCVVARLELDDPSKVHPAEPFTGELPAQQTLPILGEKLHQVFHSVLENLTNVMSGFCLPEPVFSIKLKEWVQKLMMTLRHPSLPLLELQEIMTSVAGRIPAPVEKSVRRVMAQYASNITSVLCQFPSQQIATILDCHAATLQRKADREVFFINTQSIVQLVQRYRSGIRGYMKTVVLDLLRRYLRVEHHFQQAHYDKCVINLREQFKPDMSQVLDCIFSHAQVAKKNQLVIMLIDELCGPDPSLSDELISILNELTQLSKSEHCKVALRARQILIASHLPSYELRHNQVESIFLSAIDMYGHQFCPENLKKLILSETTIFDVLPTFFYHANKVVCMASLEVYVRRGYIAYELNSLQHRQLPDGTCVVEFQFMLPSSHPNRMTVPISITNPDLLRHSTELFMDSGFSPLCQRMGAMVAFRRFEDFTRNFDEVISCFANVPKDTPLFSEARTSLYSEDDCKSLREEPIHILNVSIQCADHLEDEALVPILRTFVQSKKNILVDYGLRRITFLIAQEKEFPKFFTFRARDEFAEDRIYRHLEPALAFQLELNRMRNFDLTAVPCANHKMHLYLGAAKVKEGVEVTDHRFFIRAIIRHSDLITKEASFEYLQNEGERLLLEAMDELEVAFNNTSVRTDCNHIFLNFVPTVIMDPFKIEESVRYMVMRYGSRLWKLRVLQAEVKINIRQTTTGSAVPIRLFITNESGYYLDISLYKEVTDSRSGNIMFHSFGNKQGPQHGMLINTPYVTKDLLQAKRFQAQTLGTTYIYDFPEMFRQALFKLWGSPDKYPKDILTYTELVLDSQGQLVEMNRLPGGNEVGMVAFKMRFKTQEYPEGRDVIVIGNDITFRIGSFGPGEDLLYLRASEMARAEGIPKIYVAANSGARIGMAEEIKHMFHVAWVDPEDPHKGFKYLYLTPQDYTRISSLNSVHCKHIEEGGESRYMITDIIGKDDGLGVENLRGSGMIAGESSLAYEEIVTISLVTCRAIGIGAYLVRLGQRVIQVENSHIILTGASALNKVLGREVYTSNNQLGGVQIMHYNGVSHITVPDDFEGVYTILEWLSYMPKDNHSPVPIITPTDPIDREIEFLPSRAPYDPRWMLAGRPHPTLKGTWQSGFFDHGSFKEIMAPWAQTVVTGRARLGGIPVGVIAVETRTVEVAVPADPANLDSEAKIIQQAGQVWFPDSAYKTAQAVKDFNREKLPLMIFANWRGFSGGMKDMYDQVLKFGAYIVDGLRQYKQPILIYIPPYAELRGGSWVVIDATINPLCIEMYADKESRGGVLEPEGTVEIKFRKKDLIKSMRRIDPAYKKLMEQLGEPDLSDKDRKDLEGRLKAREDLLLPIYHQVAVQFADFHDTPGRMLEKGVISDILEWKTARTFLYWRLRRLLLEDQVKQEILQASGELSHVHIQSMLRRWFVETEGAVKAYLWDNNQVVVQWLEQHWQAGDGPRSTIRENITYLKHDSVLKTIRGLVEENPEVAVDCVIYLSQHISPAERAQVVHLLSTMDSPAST
measurement_description: In vitro ACC inhibition assay (ADP-Glo), hACC2
Format: biochemical
condition_details: Table 2b, additional results, 5 nM ACC2, 20 μM ATP, 20 μM acetyl-CoA
pIC50: −log10 of the molar value.
The following compounds are shown together with reported pIC50 values.

molecule_smiles | pIC50
COc1ccc(F)cc1[C@@H](O)Cn1c(=O)n([C@@H](C)C(=O)N2CC=CC2)c(=O)c2c(C)c(-n3nccn3)sc21 | 8.00 to 8.30
COc1ccc(F)cc1[C@H](Cn1c(=O)n(C(C)(C)C(=O)NC(C)C)c(=O)c2c(C)c(-n3nccn3)sc21)OC[C@@H](C)C(=O)O | < 7.40
Cc1c(-n2nccn2)sc2c1c(=O)n(C(C)(C)C(=O)NC(C)C)c(=O)n2C[C@H](OC(C)C)c1cc(F)ccc1CCC#N | 7.40 to 8.00

* * *

The following compounds are shown together with reported MIC values.
Test system: C. krusei
measurement_description: Antifungal Activity Assay (broth microtiter MIC), C. krusei
Format: cell-based, Candida krusei
condition_details: Pichia kudriavzevii, ATCC6258, 48 h, Table 3b (additional results); ATCC 6258; 3 replicates; MIC recorded at 48 h; read-out: MIC, C. krusei ATCC 6258

compound | MIC
COc1ccc(F)cc1[C@H](Cn1c(=O)n(C(C)(C)C(=O)NC(C)C)c(=O)c2c(C)c(-n3nccn3)sc21)OCCC(N)=O [Compound I-90] | 0.25 to 1 µg/mL
COc1ccc(F)cc1[C@H](Cn1c(=O)n(C(C)(C)C(N)=O)c(=O)c2c(C)c(-n3nccn3)sc21)OCC(C)(C)C#N [Compound I-155] | 2.01 to 4 µg/mL
CCNC(=O)[C@H](C)n1c(=O)c2c(C)c(-n3nccn3)sc2n(C[C@H](OCCC#N)c2cc(F)ccc2OC)c1=O [Compound I-253] | > 4.01 µg/mL
COc1ccc(F)cc1[C@H](Cn1c(=O)n(C(C)(C)C(=O)N2CCCC2)c(=O)c2c(C)c(-n3nccn3)sc21)OC[C@@H](C)O [Compound I-46] | 2.01 to 4 µg/mL
COCCCO[C@@H](Cn1c(=O)n(C(C)C(=O)NC(C)C)c(=O)c2c(C)c(-n3nccn3)sc21)c1cc(F)ccc1OC (stereo partly drawn) [Compound I-130] | 1.01 to 2 µg/mL
COc1ccc(F)cc1[C@H](Cn1c(=O)n([C@@H](C)C(=O)N(C)C(C)C)c(=O)c2c(C)c(-n3nccn3)sc21)OCC(C)(C)O [Compound I-170] | > 4.01 µg/mL

* * *

The following compounds are shown together with reported pIC50 values.
experimental_system: fungal (fACC2)
condition_details: read-out: fACC2 (in vitro ACC2 Inhibition Assay, IC50); Table 2b, additional results; ADP-Glo, 5 nM ACC2, 20 μM ATP, 20 μM acetyl-CoA
pIC50: −log10 of the molar value.
recorded_endpoint: pIC50

molecule_smiles | recorded_endpoint | result
COc1ccc(Cl)cc1[C@H](Cn1c(=O)n(C(C)(C)C(=O)NC2CCC2)c(=O)c2c(C)c(-n3nccn3)sc21)OC1CCOCC1 | pIC50 | 8.30 to 9.00
COc1ccc(F)cc1[C@H](Cn1c(=O)n(C(C)(C)C(=O)NC(C)C)c(=O)c2c(C)c(-n3nccn3)sc21)OCC(C)=O | pIC50 | 9.00 to 9.52
COc1ccc(F)cc1[C@H](Cn1c(=O)n(C(C)(C)C(=O)N2CCCC2)c(=O)c2c(C)c(-n3nccn3)sc21)OC[C@@H](C)O | pIC50 | 8.30 to 9.00
COc1ccc(F)cc1[C@H](Cn1c(=O)n(C(C)(C)C(=O)NC(C)C)c(=O)c2c(C)c(-n3nccn3)sc21)OC(=O)CO | pIC50 | 8.00 to 8.30
COc1ccc(F)cc1[C@H](Cn1c(=O)n(C(C)(C)C(=O)NC(C)C)c(=O)c2c(C)c(-n3nccn3)sc21)OCCC(=O)NO | pIC50 | 8.30 to 9.00
COc1ccc(F)cc1[C@@](O)(CO)Cn1c(=O)n(C(C)(C)C(=O)NC(C)C)c(=O)c2c(C)c(-n3nccn3)sc21 | pIC50 | 8.30 to 9.00
COc1ccc(F)cc1[C@H](Cn1c(=O)n([C@H](C)C(N)=O)c(=O)c2c(C)c(-n3nccn3)sc21)OCC(C)(C)O | pIC50 | 8.30 to 9.00
CCNC(=O)[C@@H](C)n1c(=O)c2c(C)c(-n3nccn3)sc2n(C[C@H](OCCC#N)c2cc(F)ccc2OC)c1=O | pIC50 | 8.30 to 9.00
COc1ccc(F)cc1[C@H](Cn1c(=O)n([C@@H](C)C(=O)N(C)C(C)C)c(=O)c2c(C)c(-n3nccn3)sc21)OCCC#N | pIC50 | 9.00 to 9.52
COc1ccc(F)cc1[C@H](Cn1c(=O)n(C(C)(C)C(=O)NC(C)C)c(=O)c2c(C)c(-n3nccn3)sc21)OCCC(N)=O | pIC50 | 8.30 to 9.00
COc1ccc(F)cc1[C@H](Cn1c(=O)n([C@@H](C)C(=O)NC(C)C)c(=O)c2c(C)c(-n3nccn3)sc21)OCCO | pIC50 | 9.00 to 9.52
CCNC(=O)C(C)(C)n1c(=O)c2c(C)c(-n3nccn3)sc2n(C[C@@H](O)c2cc(F)ccc2OC)c1=O | pIC50 | 8.30 to 9.00
COc1ccc(F)cc1[C@H](Cn1c(=O)n(C(C)(C)C(=O)NC(C)C)c(=O)c2c(C)c(-n3nccn3)sc21)O[C@H]1C[C@@H](O)C1 | pIC50 | 8.30 to 9.00

* * *

Tested on: C. krusei
measurement_description: Antifungal Activity Assay (broth microtiter MIC), C. krusei
Format: cell-based, Candida krusei
condition_details: Pichia kudriavzevii, ATCC6258, 48 h, Table 3b (additional results); ATCC 6258; 3 replicates; MIC recorded at 48 h; read-out: MIC, C. krusei ATCC 6258

compound | experimental_system | MIC
C=CCN(C)C(=O)C(C)(C)n1c(=O)c2c(C)c(-n3nccn3)sc2n(C[C@H](OC2CCOCC2)c2cc(F)ccc2OC)c1=O [Compound I-71] | C. krusei | 0.25 to 1 µg/mL
COc1ccc(F)cc1[C@H](Cn1c(=O)n(C(C)(C)C(=O)N2CC(O)C2)c(=O)c2c(C)c(-n3nccn3)sc21)OC1CCOCC1 [Compound I-26] | C. krusei | 1.01 to 2 µg/mL
COCCCO[C@@H](Cn1c(=O)n([C@H](C)C(=O)NC(C)C)c(=O)c2c(C)c(-n3nccn3)sc21)c1cc(F)ccc1OC [Compound I-87] | C. krusei | 1.01 to 2 µg/mL
COc1ccc(F)cc1[C@H](Cn1c(=O)n(C(C)(C)C(=O)N(O)C(C)C)c(=O)c2c(C)c(-n3nccn3)sc21)OCCCO [Compound I-163] | C. krusei | 0.25 to 1 µg/mL
Cc1c(-n2nccn2)sc2c1c(=O)n(C(C)(C)C(=O)N1CCCC1)c(=O)n2C[C@H](OC1CCOCC1)c1cc(F)ccc1OCCO [Compound I-112] | C. krusei | 0.25 to 1 µg/mL
COc1ccccc1[C@H](Cn1c(=O)n([C@H](C)C(=O)N(C)C(C)C)c(=O)c2c(C)c(-n3nccn3)sc21)OCCC#N [Compound I-205] | C. krusei | 2.01 to 4 µg/mL
CCc1ccc(F)cc1[C@@H](Cn1c(=O)n(C(C)(C)C(=O)NC(C)C)c(=O)c2c(C)c(-n3nccn3)sc21)OCC(C)(C)O (stereo in doubt) [Compound I-241] | C. krusei | > 4.01 µg/mL
COc1ccc(F)cc1[C@H](Cn1c(=O)n(C(C)(C)C(N)=O)c(=O)c2c(C)c(-n3nccn3)sc21)OC1CCOCC1 [Compound I-1] | C. krusei | 0.25 to 1 µg/mL
COc1ccc(F)cc1[C@H](Cn1c(=O)n([C@@H](C)C(=O)N2CCCC2)c(=O)c2c(C)c(-n3nccn3)sc21)OCC(C)(C)O [Compound I-176] | C. krusei | 2.01 to 4 µg/mL
COc1ccc(F)cc1[C@H](Cn1c(=O)n(C(C)(C)C(=O)N2CC=CC2)c(=O)c2c(C)c(-n3nccn3)sc21)OC(C)C [Compound I-51] | C. krusei | 0.25 to 1 µg/mL
COc1ccccc1[C@H](Cn1c(=O)n(C(C)(C)C(N)=O)c(=O)c2c(C)c(-n3nccn3)sc21)OCCC#N [Compound I-137] | C. krusei | 2.01 to 4 µg/mL
COc1ccc(F)cc1[C@H](Cn1c(=O)n(C(C)(C)C(=O)O)c(=O)c2c(C)c(-n3nccn3)sc21)OC[C@H](C)C#N [Compound I-148] | C. krusei | > 4.01 µg/mL
